molecular target: T1, human FLT3 (human, UniProt P36888 27-993); experiment: FACS, scFv on CHO-human FLT3 pre-incubated with FLT3 ligand (competitor)
T1 construct: On transfected CHO cells, or on the FLT3 positive human AML cell lines EOL-1 / MV4-11 where the row says so; also called hu FLT3; full length human FLT3
median [+ligand]/median [w/o ligand]*100 for assorted binders

[
  {
    "BINDER": "FL-65 scFv (scFv, periplasmic prep) scFv: QVQLVESGGGVVQPGRSLRLSCAASGFTFSSYGMHWVRQAPGKGLEWVAVISYDGSNKYYADSVKGRFTISRDNSKNTLYLQMNSLRAEDTAVYYCARSYGMDVWGQGTTVTVSSGGGGSGGGGSGGGGSDIQMTQSPSSVSASVGDRVTITCRASQGISSWLAWYQQKPGKAPKLLIYAASSLQSGVPSRFSGSGSGTDFTLTISSLQPEDFATYYCQQANSFPWTFGQGTKLEIK",
    "median [+ligand]/median [w/o ligand]*100": "≥ 75%"
  },
  {
    "BINDER": "FL-30 scFv (scFv, periplasmic prep) scFv: QVTLKESGPVLVKPTQTLTLTCTFSGFSLSNARMGVSWIRQPPGKALEWLALIYWNDDKRYSPSLKSRLTITKDTSKNQVVLTMTNMDPVDTATYYCARMVGYGSGWYAYFDYWGQGTLVTVSSGGGGSGGGGSGGGGSDIQMTQSPSSLSASVGDRVTITCRASQGIRNDLGWYQQKPGKAPKRLIYAASSLQSGVPSRFSGSGSGTEFTLTISSLQPEDFATYYCLQHNSYPLTFGGGTKVEIK",
    "median [+ligand]/median [w/o ligand]*100": "≥ 75%"
  }
]
